Assay: Caspase-3/7 induction in CHO-K1 cells by small molecules, qHTS cell viability counter screen (AID 1346979); also: nearly all actives have a fitted effect of over 35% in size; also: potency is read from the fitted curve at half-maximal effect
Settings: CellTiter-Fluor fluorescence, 17 h; series mostly up to 92.4 µM
Excerpt: National Center for Advancing Translational Sciences [NCATS] NIH Chemical Genomics Center [NCGC] U.S. Environmental Protection Agency [EPA] National Institutes of Environmental Health Sciences [NIEHS] National Toxicology Program [NTP] U.S. Food and Drug Administration [FDA] Apoptosis is a process of programmed cell death and plays a central role in the development of multicellular organisms. […]
Inconclusive results are not listed. The source made the active and inactive calls. Calls follow the shape of the dose curve; as a rule, active = well fitted cell-killing curve with a large enough effect in the repeat runs; inconclusive = weak or mixed curves, or effect the other way; inactive = no such curve, though single readings can be large or run the other way.
observable: Potency

Worked cases, Potency given:
1) NC(CO)(CO)CO: inactive
2) O=C1NS(=O)(=O)c2ccccc21: inactive
3) CN(C)C(=O)Nc1ccc(Cl)c(Cl)c1: inactive
4) CCN(CC)C(=O)c1cccc(C)c1: inactive
5) Nc1c(N=Nc2ccc(-c3ccc(N=Nc4cc(S(=O)(=O)O)c5ccccc5c4N)cc3)cc2)cc(S(=O)(=O)O)c2ccccc12: 12.2 µM (active)

INPUT: Would you kindly share the measured Potency for CC1(C)S[C@@H]2[C@H](NC(=O)[C@H](N)c3ccccc3)C(=O)N2[C@H]1C(=O)O ?
OUTPUT: inactive

INPUT: Item under review: O=C(O)CC(O)C(=O)O (configuration not stated) . Reported Potency?
OUTPUT: inactive

INPUT: Given the compound COc1ccc2c(c1)c(CC(=O)O)c(C)n2C(=O)c1ccc(Cl)cc1 , what is its reported Potency?
OUTPUT: 61.5 µM (active)

INPUT: Param item = CCCCC1(COC(=O)CCC(=O)O)C(=O)N(c2ccccc2)N(c2ccccc2)C1=O ; retrieve measured Potency.
OUTPUT: inactive

* * *

target: Thyrotropin receptor (Homo sapiens) (UniProt P16473); assay: qHTS assay to identify small molecule antagonists of the thyroid stimulating hormone receptor (TSHR) signaling pathway (AID 1259385); conditions: TSHR-HEK293 cAMP HTRF, TSH-stimulated antagonist mode; series mostly up to 92.4 µM; also: nearly all actives have a fitted effect of over 20% in size
Sequence (P16473 whole entry, looked up): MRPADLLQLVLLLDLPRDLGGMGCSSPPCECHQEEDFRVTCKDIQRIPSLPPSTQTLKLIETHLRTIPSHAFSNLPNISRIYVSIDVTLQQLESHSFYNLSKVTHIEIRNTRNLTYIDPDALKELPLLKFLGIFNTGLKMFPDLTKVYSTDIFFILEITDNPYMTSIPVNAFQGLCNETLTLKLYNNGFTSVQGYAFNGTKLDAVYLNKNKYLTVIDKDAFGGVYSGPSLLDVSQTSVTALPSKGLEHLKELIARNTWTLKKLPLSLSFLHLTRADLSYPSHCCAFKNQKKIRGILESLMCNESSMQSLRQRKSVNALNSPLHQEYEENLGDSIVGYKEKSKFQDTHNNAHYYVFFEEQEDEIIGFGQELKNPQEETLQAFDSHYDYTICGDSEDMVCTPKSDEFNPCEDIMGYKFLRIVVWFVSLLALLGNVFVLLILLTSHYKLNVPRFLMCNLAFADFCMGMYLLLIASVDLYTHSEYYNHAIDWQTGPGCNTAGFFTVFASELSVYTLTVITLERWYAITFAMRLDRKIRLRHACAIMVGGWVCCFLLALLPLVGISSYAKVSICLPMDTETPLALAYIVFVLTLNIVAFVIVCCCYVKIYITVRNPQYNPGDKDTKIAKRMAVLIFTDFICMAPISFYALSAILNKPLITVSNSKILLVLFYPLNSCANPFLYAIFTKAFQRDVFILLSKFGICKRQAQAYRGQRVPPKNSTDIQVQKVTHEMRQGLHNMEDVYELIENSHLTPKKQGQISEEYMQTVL
Inconclusive results are not listed. The source made the active and inactive calls. Calls follow the shape of the full dose curve.
Allowed answers: active, inactive

INPUT: Assay result, entry NC(=O)c1cccnc1 — outcome?
OUTPUT: inactive

INPUT: Tell me the recorded outcome of this test for O=c1[nH]cc(F)c(=O)[nH]1 .
OUTPUT: inactive

INPUT: What outcome does the record of this test show for NC(=O)n1c(O)c(C(=O)c2cccs2)c2cc(Cl)ccc21 ?
OUTPUT: inactive

INPUT: Kindly provide the recorded test outcome for the following molecule: CN(C)C(=O)Nc1ccc(Cl)c(Cl)c1
OUTPUT: inactive

INPUT: Each molecule tested received a call. Report the one for COc1ccc2cc(S(=O)(=O)N[C@H](CC(=O)N[C@H](Cc3ccc(CN4[C@H](C)CCC[C@@H]4C)cc3)C(=O)N(C)C(C)C)c3ccc4c(c3)OCO4)ccc2c1 .
OUTPUT: active

INPUT: Would you mind telling me which call this test gave CN1CCc2cccc3c2[C@H]1Cc1ccc(O)c(O)c1-3 ?
OUTPUT: inactive

INPUT: Record lookup: outcome of this test for Cc1cc(=O)oc2cc(O)ccc12 ?
OUTPUT: inactive

INPUT: Per the assay record, what outcome was assigned to Cc1ncc([N+](=O)[O-])n1CCO ?
OUTPUT: inactive

INPUT: Outcome logged for CCCCCCCC(=O)OCC(COC(=O)CCCCCCC)OC(=O)CCCCCCC in this assay:
OUTPUT: inactive

INPUT: Returns: the outcome recorded for COc1ccc2c(c1)c(CC(=O)O)c(C)n2C(=O)c1ccc(Cl)cc1 in this assay.
OUTPUT: inactive

INPUT: For CC(=O)Nc1c(I)c(NC(C)=O)c(I)c(C(=O)O)c1I , which call appears in the assay record?
OUTPUT: inactive

INPUT: How was CCCCCCc1ccc(O)cc1O classified in this test?
OUTPUT: inactive

INPUT: Test call for this molecule, please: CN1[C@@H]2CC(OC(=O)[C@H](CO)c3ccccc3)C[C@H]1[C@@H]1O[C@@H]12 (stereo partly specified)
OUTPUT: inactive

INPUT: Query: recorded result category for Oc1ccccc1 in this test
OUTPUT: inactive

INPUT: Assay result, entry CC(=O)CCC(=O)O — outcome?
OUTPUT: inactive

INPUT: What was the test verdict on CCCCOC(=O)c1ccc(O)cc1 ?
OUTPUT: inactive

* * *

assay: qHTS assay for small molecule disruptors of the mitochondrial membrane potential - cell viability (AID 720634); details: HepG2 viability, ATP luminescence (CellTiter-Glo), 1 h; series mostly up to 83.2 µM;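 also: human HepG2 liver cancer cells; nearly all actives have a fitted effect of over 20% in size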
Records with an inconclusive call do not appear. Calls of active or inactive are those of the source. Calls come from the whole dose curve.
observable: outcome

1. O=C(O)c1ccccc1: inactive
2. C[C@](N)(Cc1ccc(O)c(O)c1)C(=O)O: inactive
3. CCN(CC)C(=O)c1cccc(C)c1: inactive

* * *

test: qHTS assay to identify small molecule agonists of H2AX - cell viability counter screen (AID 1224847); conditions: CHO-K1 viability, CellTiter-Glo luminescence, 3 h; series mostly up to 154 µM; also: nearly all actives have a fitted effect of over 30% in size
Records with an inconclusive call do not appear. The source made the active and inactive calls. Calls come from the whole dose curve.
Result category, one only: yes (active), no (inactive)

INPUT: Please let me know the test result on file for COc1ccc(OC(F)(F)F)cc1CN[C@H]1CCCN[C@H]1c1ccccc1 .
OUTPUT: yes

INPUT: Outcome logged for CCN(CC)C(=O)c1cccc(C)c1 in this assay:
OUTPUT: no

INPUT: Which outcome was entered for the compound NC1CCCCC1 in this test?
OUTPUT: no

INPUT: Recorded call for NS(=O)(=O)c1cc2c(cc1Cl)NCNS2(=O)=O ?
OUTPUT: no

INPUT: Any idea what this test logged for Cc1cc(=O)oc2cc(O)ccc12 ?
OUTPUT: no

INPUT: Recorded call for CC(=O)CCC(=O)O ?
OUTPUT: no

INPUT: Please indicate how the test categorized CC(=O)CC(c1ccccc1)c1c(O)c2ccccc2oc1=O (configuration not stated) .
OUTPUT: no

* * *

assay: qHTS assay to identify small molecule agonists of the hypoxia (HIF-1) signaling pathway - cell viability counter screen (AID 1224844); conditions: HRE-bla ME-180 viability, CellTiter-Glo luminescence, 17 h; series mostly up to 76.8 µM; also: nearly all actives have a fitted effect of over 50% in size
Inconclusive results are not listed. Activity calls are given as the source filed them. The call rests on the fitted dose curve.
I would appreciate it if you answered using one of these outcomes: active, inactive

INPUT: What call does the record list for CCN(Cc1c(F)cccc1Cl)c1c([N+](=O)[O-])cc(C(F)(F)F)cc1[N+](=O)[O-] ?
OUTPUT: active

INPUT: How was CC(C)NCC(O)c1ccc(O)c(O)c1 (stereo not drawn) classified in this test?
OUTPUT: inactive

INPUT: Name the outcome recorded for CCCCOC(=O)c1ccc(O)cc1 in the assay.
OUTPUT: inactive

INPUT: In this assay, the call recorded for COc1ccc(C(Cl)=C(c2ccc(OC)cc2)c2ccc(OC)cc2)cc1 was what?
OUTPUT: inactive

INPUT: Tell me the recorded outcome of this test for CC1(C)S[C@@H]2[C@H](NC(=O)[C@H](N)c3ccccc3)C(=O)N2[C@H]1C(=O)O .
OUTPUT: inactive

INPUT: Query: recorded result category for Cc1ccc(S(=O)(=O)O)cc1 in this test
OUTPUT: inactive

INPUT: Per the assay record, what outcome was assigned to CCOc1ccc(NC(C)=O)cc1 ?
OUTPUT: inactive

INPUT: For this compound, state the assay outcome: O=C1NC(=O)C(c2ccccc2)(c2ccccc2)N1
OUTPUT: inactive

* * *

experiment: qHTS RealTime-Glo MT Cell Viability Assay in HEK293 cells - 32 hour (AID 1224868); details: RealTime-Glo luminescence; series mostly up to 76.8 µM; also: nearly all actives have a fitted effect of over 50% in size
Results filed as inconclusive are left out. Activity calls are given as the source filed them. Calls come from the whole dose curve; as a rule, active = well fitted cell-killing curve with a large enough effect in the repeat runs; inconclusive = weak or mixed curves, or effect the other way; inactive = flat fitted curve, though single readings scatter.
Your reply should match one of these outcome classes. Yes = active, No = inactive

INPUT: What outcome does the record of this test show for COc1ccc2c(c1)c(CC(=O)O)c(C)n2C(=O)c1ccc(Cl)cc1 ?
OUTPUT: No

INPUT: Which outcome did this test record for the compound O=C(Nc1ncc([N+](=O)[O-])s1)c1cccs1 ?
OUTPUT: No

INPUT: Per the records of this test, what outcome belongs to C1=CC2C3C=CC(C3)C2C1 (stereo not given) ?
OUTPUT: No

INPUT: How was CCN(Cc1c(F)cccc1Cl)c1c([N+](=O)[O-])cc(C(F)(F)F)cc1[N+](=O)[O-] classified in this test?
OUTPUT: Yes

INPUT: // outcome(item) with item = O=C1NS(=O)(=O)c2ccccc21
OUTPUT: No

* * *

biological target: Peroxisome proliferator-activated receptor delta (Homo sapiens) (UniProt Q03181); experiment: qHTS assay to identify small molecule antagonists of the peroxisome proliferator-activated receptor delta (PPARd) signaling pathway (AID 743215); details: HEK293H PPARd-UAS-bla, beta-lactamase FRET ratio, antagonist, 17 h; series mostly up to 62 µM;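 also: cells stimulated with agonist L165041 at 300 nM final during compound exposure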
Sequence (Q03181 whole entry, looked up): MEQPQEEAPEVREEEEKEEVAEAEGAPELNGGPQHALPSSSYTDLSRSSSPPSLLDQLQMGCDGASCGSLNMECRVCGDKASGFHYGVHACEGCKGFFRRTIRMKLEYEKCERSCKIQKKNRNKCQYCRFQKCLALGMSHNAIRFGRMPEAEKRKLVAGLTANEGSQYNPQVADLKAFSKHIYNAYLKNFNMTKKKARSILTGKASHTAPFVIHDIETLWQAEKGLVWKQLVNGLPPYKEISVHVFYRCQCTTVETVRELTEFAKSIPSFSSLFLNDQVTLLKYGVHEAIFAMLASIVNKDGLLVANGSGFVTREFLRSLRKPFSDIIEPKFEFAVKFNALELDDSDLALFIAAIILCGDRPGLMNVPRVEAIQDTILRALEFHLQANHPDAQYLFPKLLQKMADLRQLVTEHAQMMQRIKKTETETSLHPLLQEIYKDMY
Records with an inconclusive call do not appear. Active and inactive are the calls of the source. Calls follow the shape of the dose curve; as a rule, active = well fitted inhibition curve with a large enough effect in the signal ratio in the repeat runs (not every such curve was filed as active); inconclusive = weak or mixed curves, or effect the other way; inactive = no such curve, though single readings can be large or run the other way; the % refers to the signal ratio.
One label from this list, please: YES = active, NO = inactive

INPUT: Each compound tested received a call. Report the one for CC1(C)O[C@@H]2C[C@H]3[C@@H]4CCC5=CC(=O)C=C[C@]5(C)[C@@]4(F)[C@@H](O)C[C@]3(C)[C@]2(C(=O)CO)O1 .
OUTPUT: NO

INPUT: Name the outcome recorded for CN(C)C(=O)Nc1ccc(Cl)c(Cl)c1 in the assay.
OUTPUT: NO

INPUT: For COc1cccc(O)c1O , what call appears in the results of this test?
OUTPUT: NO

INPUT: For this compound, state the assay outcome: CN(C)C(=S)SC(=S)N(C)C
OUTPUT: YES

INPUT: Dear all, I need the recorded test outcome for Nc1c(N=Nc2ccc(-c3ccc(N=Nc4cc(S(=O)(=O)O)c5ccccc5c4N)cc3)cc2)cc(S(=O)(=O)O)c2ccccc12 , thank you.
OUTPUT: NO

INPUT: Which result was noted for this compound in the test: Cc1c(C(=O)O)c(O)cc2c1C(=O)c1c(O)c([C@@H]3O[C@H](CO)[C@@H](O)[C@H](O)[C@H]3O)c(O)c(O)c1C2=O
OUTPUT: NO

INPUT: What was the test verdict on O=c1[nH]cc(F)c(=O)[nH]1 ?
OUTPUT: NO

INPUT: Test call for this compound, please: CCCCCCCCCCCC[N+](C)(C)Cc1ccccc1
OUTPUT: YES

INPUT: I would be grateful if you could indicate the recorded call for O=CC(=O)c1ccccc1 .
OUTPUT: NO

INPUT: Hi, do you know how O=S1(=O)OC(c2ccc(O)cc2)(c2ccc(O)cc2)c2ccccc21 came out in this test?
OUTPUT: NO

INPUT: Test call, this compound: O=C1NC(=O)C(c2ccccc2)(c2ccccc2)N1
OUTPUT: NO

INPUT: Hi, sorry to bother you, what did the test record for CCCCCCCCCCCCCCCC[N+](C)(C)Cc1ccccc1 ?
OUTPUT: NO

INPUT: For CCCCC1(COC(=O)CCC(=O)O)C(=O)N(c2ccccc2)N(c2ccccc2)C1=O , which call appears in the assay record?
OUTPUT: NO

INPUT: Tell me the assay call for CC(=O)C(=O)O please.
OUTPUT: NO

INPUT: So what was the verdict on CCCCOC(=O)c1ccc(O)cc1 in this test?
OUTPUT: NO

INPUT: // param item: CN(N=O)C(=O)N[C@@H]1[C@@H](O)[C@H](O)[C@@H](CO)O[C@@H]1O ; yields the recorded call
OUTPUT: NO
